- Test system: PCJ (Prostate)
- procedureDetails: SRB assay, PCJ
- Format: cell-based
- studyConditions: Homo sapiens, 48 h, read-out: LC50
Each record here notes measured CC50.
Form entry: value (nM) — number only.

For this compound ( C[C@]12CCC(=NOCCN)C=C1CCC1C2CC[C@@]2(C)C1CC[C@@H]2O (some centres unmarked) ), measured CC50 is 29400

C[C@H]1O[C@@H](O[C@H]2[C@@H](O)C[C@H](O[C@H]3[C@@H](O)C[C@H](O[C@H]4CC[C@@]5(C)[C@H](CC[C@@H]6[C@@H]5C[C@@H](O)[C@]5(C)[C@@H](C7=CC(=O)OC7)CC[C@]65O)C4)O[C@@H]3C)O[C@@H]2C)C[C@H](O)[C@@H]1O [Digoxin, reference compound] yielded CC50 of 300

In plain terms, C[C@]12CCC(=NOCCN)C=C1CCC1C2CC[C@]2(C)C(=O)CCC12 (some centres unmarked) has a documented CC50 of 8520

====

- Tested on: HCT15 (Colon)
- procedureDetails: SRB assay, HCT15
- Type: cell-based, human
- studyConditions: HCT15, SRB, 48 h
measurementKind: TGI (µM)
Entry rule: numbers only, all in µM.

Below are worked cases with known answers.
C[C@H]1O[C@@H](O[C@H]2[C@@H](O)C[C@H](O[C@H]3[C@@H](O)C[C@H](O[C@H]4CC[C@@]5(C)[C@H](CC[C@@H]6[C@@H]5C[C@@H](O)[C@]5(C)[C@@H](C7=CC(=O)OC7)CC[C@]65O)C4)O[C@@H]3C)O[C@@H]2C)C[C@H](O)[C@@H]1O [Digoxin, reference compound]
0.06
C[C@]12CCC(=NOCCN)C=C1CCC1C2CC[C@@]2(C)C1CC[C@@H]2O (stereo partly shown)
23.51
CC(=O)O[C@H]1C(=O)[C@@]2(C)[C@H]([C@H](OC(=O)c3ccccc3)[C@]3(O)C[C@H](OC(=O)[C@H](O)[C@@H](NC(=O)c4ccccc4)c4ccccc4)C(C)=C1C3(C)C)[C@]1(OC(C)=O)CO[C@@H]1C[C@@H]2O [Paclitaxel, reference compound]
0.852

Shifting focus to the compound that follows.
Looking up C[C@]12CCC(=NOCCN)C=C1CCC1C2CC[C@]2(C)C(=O)CCC12 (stereo partly shown) , I see its TGI listed as 6.70

====

- Test system: A549 (Lung)
- procedureDetails: SRB assay, A549
- Assay type: cell-based, human
- studyConditions: A549, SRB, 48 h
Label yes (1) for high-side TGI (at or above 0.6 µM) and no (0) for low-side TGI (below it).

C[C@]12CCC(=NOC3CCNC3)CC1CCC1C2CC[C@]2(C)C(=O)CCC12 (stereo partly shown)
no (0)
C[C@]12CCC(=NOCCN)C=C1CCC1C2CC[C@@]2(C)C1CC[C@@H]2O (stereo partly shown)
yes (1)
CC(=O)O[C@H]1C(=O)[C@@]2(C)[C@H]([C@H](OC(=O)c3ccccc3)[C@]3(O)C[C@H](OC(=O)[C@H](O)[C@@H](NC(=O)c4ccccc4)c4ccccc4)C(C)=C1C3(C)C)[C@]1(OC(C)=O)CO[C@@H]1C[C@@H]2O [Paclitaxel, reference compound]
yes (1)

Request: Is TGI at least 0.6 µM? Consider C[C@]12CCC(=NOC3CCNC3)C=C1CCC1C2CC[C@]2(C)C(=O)CCC12 (stereo partly shown)
Result: no (0)

Request: Is TGI for C[C@]12CCC(=NOCCN)C=C1CCC1C2CC[C@]2(C)C(=O)CCC12 (stereo partly shown) at or above 0.6 µM?
Result: yes (1)

Request: Answer whether TGI of C[C@H]1O[C@@H](O[C@H]2[C@@H](O)C[C@H](O[C@H]3[C@@H](O)C[C@H](O[C@H]4CC[C@@]5(C)[C@H](CC[C@@H]6[C@@H]5C[C@@H](O)[C@]5(C)[C@@H](C7=CC(=O)OC7)CC[C@]65O)C4)O[C@@H]3C)O[C@@H]2C)C[C@H](O)[C@@H]1O [Digoxin, reference compound] is greater than or equal to 0.6 µM.
Result: no (0)

====

- System: SF268 (CNS)
- procedureDetails: SRB assay, SF268
- Format: cell-based
- studyConditions: Homo sapiens, SF-268, 48 h, read-out: LC50
measurementKind: log10(CC50) (log10 of the value in µM)
A difference of one corresponds to tenfold CC50; all values are log10 with CC50 in µM.

The examples below pair each entry with its known result.
C[C@]12CCC(=NOC3CCNC3)C=C1CCC1C2CC[C@]2(C)C(=O)CCC12 (some centres unmarked)
0.90
C[C@]12CCC(=NOCCN)C=C1CCC1C2CC[C@@]2(C)C1CC[C@@H]2O (some centres unmarked)
1.31
C[C@H]1O[C@@H](O[C@H]2[C@@H](O)C[C@H](O[C@H]3[C@@H](O)C[C@H](O[C@H]4CC[C@@]5(C)[C@H](CC[C@@H]6[C@@H]5C[C@@H](O)[C@]5(C)[C@@H](C7=CC(=O)OC7)CC[C@]65O)C4)O[C@@H]3C)O[C@@H]2C)C[C@H](O)[C@@H]1O [Digoxin, reference compound]
-1.00
C[C@]12CCC(=NOC3CCNC3)CC1CCC1C2CC[C@]2(C)C(=O)CCC12 (some centres unmarked)
-0.09
C[C@]12CCC(=NOCCN)CC1CCC1C2CC[C@]2(C)C(=O)CCC12 (some centres unmarked)
-0.04

log10(CC50) recorded for this molecule, C[C@@H]1O[C@@H](O[C@H]2C[C@@H](O)[C@]3(CO)[C@H]4[C@H](O)C[C@]5(C)[C@@H](C6=CC(=O)OC6)CC[C@]5(O)[C@@H]4CC[C@]3(O)C2)[C@H](O)[C@H](O)[C@H]1O [Ouabain, reference compound] , is -0.52

log10(CC50) for C[C@]12CCC(=NOCCN)C=C1CCC1C2CC[C@]2(C)C(=O)CCC12 (some centres unmarked) is 0.93

====

OVCAR3 (Ovary) GI50 data

Consider the worked cases shown below.
C[C@]12CCC(=NOCCN)C=C1CCC1C2CC[C@]2(C)C(=O)CCC12 (stereo partly drawn)
3010 nM
C[C@]12CCC(=NOC3CCNC3)CC1CCC1C2CC[C@]2(C)C(=O)CCC12 (stereo partly drawn)
2.9 nM
C[C@]12CCC(=NOCCN)CC1CCC1C2CC[C@]2(C)C(=O)CCC12 (stereo partly drawn)
291 nM
C[C@]12CCC(=NOC3CCNC3)C=C1CCC1C2CC[C@]2(C)C(=O)CCC12 (stereo partly drawn)
355 nM

Here C[C@]12CCC(=NOCCN)C=C1CCC1C2CC[C@@]2(C)C1CC[C@@H]2O (stereo partly drawn) was tested on OVCAR3 (Ovary), and its GI50 came to 6500 nM

Considering C[C@H]1O[C@@H](O[C@H]2[C@@H](O)C[C@H](O[C@H]3[C@@H](O)C[C@H](O[C@H]4CC[C@@]5(C)[C@H](CC[C@@H]6[C@@H]5C[C@@H](O)[C@]5(C)[C@@H](C7=CC(=O)OC7)CC[C@]65O)C4)O[C@@H]3C)O[C@@H]2C)C[C@H](O)[C@@H]1O [Digoxin, reference compound] , its GI50 with OVCAR3 (Ovary) was recorded as < 10 nM

====

- System: IGROV1 (Ovary)
- procedureDetails: SRB assay, IGROV1
- Format: cell-based, human
- studyConditions: IGROV1, SRB, 48 h
TGI values by entry
Supply the numeric figure in µM, leaving out any unit text.

Examples with answers:
C[C@]12CCC(=NOCCN)C=C1CCC1C2CC[C@]2(C)C(=O)CCC12 (stereo partly shown) [Compound 12]
12.38
C[C@H]1O[C@@H](O[C@H]2[C@@H](O)C[C@H](O[C@H]3[C@@H](O)C[C@H](O[C@H]4CC[C@@]5(C)[C@H](CC[C@@H]6[C@@H]5C[C@@H](O)[C@]5(C)[C@@H](C7=CC(=O)OC7)CC[C@]65O)C4)O[C@@H]3C)O[C@@H]2C)C[C@H](O)[C@@H]1O [Digoxin, reference compound]
0.35
C[C@]12CCC(=NOCCN)C=C1CCC1C2CC[C@@]2(C)C1CC[C@@H]2O (stereo partly shown) [Compound 120]
10.74

Result for CC(=O)O[C@H]1C(=O)[C@@]2(C)[C@H]([C@H](OC(=O)c3ccccc3)[C@]3(O)C[C@H](OC(=O)[C@H](O)[C@@H](NC(=O)c4ccccc4)c4ccccc4)C(C)=C1C3(C)C)[C@]1(OC(C)=O)CO[C@@H]1C[C@@H]2O [Paclitaxel, reference compound] , tested on IGROV1 (Ovary), TGI: 3.305

====

Measurement record for HCT116 (Colon); quantity recorded: GI50.

Here are 4 compounds together with their reported answers.
CC(=O)O[C@H]1C(=O)[C@@]2(C)[C@H]([C@H](OC(=O)c3ccccc3)[C@]3(O)C[C@H](OC(=O)[C@H](O)[C@@H](NC(=O)c4ccccc4)c4ccccc4)C(C)=C1C3(C)C)[C@]1(OC(C)=O)CO[C@@H]1C[C@@H]2O [Paclitaxel, reference compound]
< 100 nM
C[C@H]1O[C@@H](O[C@H]2[C@@H](O)C[C@H](O[C@H]3[C@@H](O)C[C@H](O[C@H]4CC[C@@]5(C)[C@H](CC[C@@H]6[C@@H]5C[C@@H](O)[C@]5(C)[C@@H](C7=CC(=O)OC7)CC[C@]65O)C4)O[C@@H]3C)O[C@@H]2C)C[C@H](O)[C@@H]1O [Digoxin, reference compound]
< 80 nM
C[C@]12CCC(=NOCCN)C=C1CCC1C2CC[C@@]2(C)C1CC[C@@H]2O (some centres unmarked)
4280 nM
C[C@]12CCC(=NOC3CCNC3)C=C1CCC1C2CC[C@]2(C)C(=O)CCC12 (some centres unmarked)
286 nM

Lab note: next compound to report on.
Reported GI50 ( C[C@@H]1O[C@@H](O[C@H]2C[C@@H](O)[C@]3(CO)[C@H]4[C@H](O)C[C@]5(C)[C@@H](C6=CC(=O)OC6)CC[C@]5(O)[C@@H]4CC[C@]3(O)C2)[C@H](O)[C@H](O)[C@H]1O [Ouabain, reference compound] ) = < 80 nM

Origin of the recorded values: patent US20120238488A1
